Tested on: HT29 colon
Test: NCI-60 one-dose screen, 48 h
Conditions: 10 µM unless noted
About 83,000 compounds went through this panel and 20% of them were active in at least one assay; those are over-represented in the sample as a whole. Calls of active or inactive are those of the source. Rule for the calls: active = growth percent below 10; inactive = the rest.
Give your call using only these classes: active, inactive

The following compounds have reported results that may help.
[
  {
    "Smiles repr": "CSc1nc(-c2cc3ccccc3o2)cc(-c2ccc(Cl)cc2)c1C#N",
    "Assigned label": "active"
  },
  {
    "Smiles repr": "COc1ccc(/C=C/c2nc(N3CCOCC3)c3nc(Cl)c(Cl)cc3n2)cc1OC",
    "Assigned label": "inactive"
  },
  {
    "Smiles repr": "COc1ccc(-c2nc3sccn3c2-c2ccnc(NCCCNS(=O)(=O)c3ccc(C)cc3)n2)cc1",
    "Assigned label": "inactive"
  },
  {
    "Smiles repr": "O=C(CCCn1c(=O)c2sc3ccccc3c2n2nnc(-c3ccccc3)c12)NCCc1cnc[nH]1",
    "Assigned label": "active"
  },
  {
    "Smiles repr": "FC(F)(F)c1cccc(-n2nnc3cnc(Nc4ccc(N5CCCCC5)cc4)nc32)c1",
    "Assigned label": "inactive"
  }
]

Inquiry: What call does the record list for COc1cc(/C=C/C(=O)c2ccc(NC(=O)CN3CCN(c4cc5c(cc4F)c(=O)c(C(=O)O)cn5C4CC4)CC3)cc2)cc(OC)c1OC ?
Reply text: active

Inquiry: What call does the record list for O=C(O)c1cccc([N+](=O)[O-])c1/C=C/c1ccccc1 ?
Reply text: inactive

Inquiry: What call does the record list for Cc1nc2sccn2c1-c1csc(Nc2ccccc2Cl)n1 ?
Reply text: inactive

Inquiry: What call does the record list for COc1ccc2c(c1)C(=O)/C(=C/c1ccc(O)cc1)O2 ?
Reply text: inactive

Where do the numbers come from? From PubChem BioAssay (NCI).
